Source listed as patent US11299480B2.

Entries annotated with measured half-life
# Assay procedure: in vitro
# Test conditions: human, liver microsomes
Parameter: half-life (min)

compound=O=C([O-])c1ccc(N(Cc2ccc(C3CCOCC3)cc2)C(=O)[C@H]2CCCN2S(=O)(=O)c2c(F)c(F)c(F)c(F)c2F)cc1O.[Na+] bound_type== test_result=15
compound="C[C@H](C(=O)N(Cc1ccc(C2CCOCC2)cc1)c1ccc(C(=O)[O-])c(O)c1)N(C)S(=O)(=O)c1c(F)c(F)c(F)c(F)c1F.[Na+] [Example 59]" bound_type=≤ test_result=5
compound="O=C(O)c1ccc(N(Cc2ccc(C3CCOCC3)cc2)C(=O)[C@H]2CCCN2S(=O)(=O)c2c(F)c(F)c(F)c(F)c2F)c(F)c1 [Example 60]" bound_type== test_result=54
compound=C[C@H](C(=O)N(Cc1ccc(C2CCCCC2)cc1)c1ccc(C(=O)[O-])c(O)c1)N(C)S(=O)(=O)c1c(F)c(F)c(F)c(F)c1F.[Na+] bound_type=≤ test_result=5

###

# Measured on: Stat3 (Mus musculus)
# Assay type: biochemical
# Test conditions: Stat3 DNA-binding activity in vitro; nuclear extracts pre-incubated with compound 30 min at room temperature, hSIE probe; read-out: EMSA IC50
pIC50: −log10 of the molar value.
Parameter: pIC50

compound="O=C(O)c1ccc(N(Cc2ccc(C3CCCC3)cc2)C(=O)[C@H]2CCCN2S(=O)(=O)c2c(F)c(F)c(F)c(F)c2F)cc1O [Example 79]" test_result=5.44
compound="O=C([C@H]1CCN1S(=O)(=O)c1c(F)c(F)c(F)c(F)c1F)N(Cc1ccc(C2CCCCC2)cn1)c1ccc2c(=O)[nH]ncc2c1 [Example 102]" test_result=6.18
compound="CC(C)(C)c1ccc(CN(C(=O)[C@H]2CCN2S(=O)(=O)c2c(F)c(F)c(F)c(F)c2F)c2ccc(C(=O)O)c(O)c2)cc1 [Example 130]" test_result=5.66
compound="C[C@H](C(=O)N(Cc1ccc(C2CCOCC2)cc1)c1ccc(C(=O)O)c(O)c1)N(C)S(=O)(=O)c1c(F)c(F)c(F)c(F)c1F [Example 57]" test_result=5.30
compound="O=C([C@H]1CCN1S(=O)(=O)c1c(F)c(F)c(F)c(F)c1F)N(Cc1cnc(C2CCCCC2)cn1)c1ccc2c(=O)[nH]cnc2c1 [Example 151]" test_result=5.83
compound="O=C([C@H]1CCN1S(=O)(=O)c1c(F)c(F)c(F)c(F)c1F)N(Cc1ccc(C2CCCCC2)cc1)c1ccc2nc[nH]c2c1 [Example 99]" test_result=5.63
compound="O=C(NO)c1ccc(N(Cc2ccc(C3CCOCC3)cc2)C(=O)[C@H]2CCN2S(=O)(=O)c2c(F)c(F)c(F)c(F)c2F)cc1O [Example 84]" test_result=5.68
compound="O=C(O)c1ccc(N(Cc2ccc(C3CCCCC3)cn2)C(=O)[C@H]2CCN2S(=O)(=O)c2c(F)c(F)c(F)c(F)c2F)c(F)c1 [Example 108]" test_result=6.12
compound="O=C(NO)c1ccc(N(Cc2ccc(C3CCCCC3)cc2)C(=O)[C@H]2CCN2S(=O)(=O)c2c(F)c(F)c(F)c(F)c2F)cc1O [Example 85]" test_result=5.88
compound="Cc1cc(C(=O)O)cc(C)c1N(Cc1ccc(C2CCCCC2)cc1)C(=O)[C@@H](C)N(C)S(=O)(=O)c1c(F)c(F)c(F)c(F)c1F [Example 47]" test_result=5.38
compound="O=C(NO)c1ccc(N(Cc2ccc(C3CCCCC3)cc2)C(=O)[C@H]2CCN2S(=O)(=O)c2c(F)c(F)c(F)c(F)c2F)cc1 [Example 83]" test_result=5.60
compound="O=C(NO)c1ccc(N(Cc2ccc(C3CCCCC3)cc2)C(=O)[C@H]2CCN2S(=O)(=O)c2c(F)c(F)c(F)c(F)c2F)c(F)c1 [Example 50]" test_result=5.76
compound="O=C(O)c1ccc(N(Cc2ccc(C3CCCC3)cn2)C(=O)[C@H]2CCN2S(=O)(=O)c2c(F)c(F)c(F)c(F)c2F)c(F)c1 [Example 124]" test_result=5.93

###

Entries annotated with measured half-life
# Assay procedure: in vitro
# Test conditions: mouse, liver microsomes
Parameter: half-life

smiles_record=C[C@H](C(=O)N(Cc1ccc(C2CCCCC2)cc1)c1ccc(C(=O)[O-])c(O)c1)N(C)S(=O)(=O)c1c(F)c(F)c(F)c(F)c1F.[Na+] parameter=half-life test_result="≤ 5 min"
smiles_record=C[C@H](C(=O)N(Cc1ccc(C2CCOCC2)cc1)c1ccc(C(=O)[O-])c(O)c1)N(C)S(=O)(=O)c1c(F)c(F)c(F)c(F)c1F.[Na+] parameter=half-life test_result="≤ 5 min"
smiles_record=O=C([O-])c1ccc(N(Cc2ccc(C3CCOCC3)cc2)C(=O)[C@H]2CCCN2S(=O)(=O)c2c(F)c(F)c(F)c(F)c2F)cc1O.[Na+] parameter=half-life test_result="18 min"
smiles_record=O=C(O)c1ccc(N(Cc2ccc(C3CCOCC3)cc2)C(=O)[C@H]2CCCN2S(=O)(=O)c2c(F)c(F)c(F)c(F)c2F)c(F)c1 parameter=half-life test_result="26 min"

###

Entries annotated with measured pIC50
# Measured on: Stat3 (Mus musculus, UniProt P42227)
# Sequence (P42227 2-770 limits assumed): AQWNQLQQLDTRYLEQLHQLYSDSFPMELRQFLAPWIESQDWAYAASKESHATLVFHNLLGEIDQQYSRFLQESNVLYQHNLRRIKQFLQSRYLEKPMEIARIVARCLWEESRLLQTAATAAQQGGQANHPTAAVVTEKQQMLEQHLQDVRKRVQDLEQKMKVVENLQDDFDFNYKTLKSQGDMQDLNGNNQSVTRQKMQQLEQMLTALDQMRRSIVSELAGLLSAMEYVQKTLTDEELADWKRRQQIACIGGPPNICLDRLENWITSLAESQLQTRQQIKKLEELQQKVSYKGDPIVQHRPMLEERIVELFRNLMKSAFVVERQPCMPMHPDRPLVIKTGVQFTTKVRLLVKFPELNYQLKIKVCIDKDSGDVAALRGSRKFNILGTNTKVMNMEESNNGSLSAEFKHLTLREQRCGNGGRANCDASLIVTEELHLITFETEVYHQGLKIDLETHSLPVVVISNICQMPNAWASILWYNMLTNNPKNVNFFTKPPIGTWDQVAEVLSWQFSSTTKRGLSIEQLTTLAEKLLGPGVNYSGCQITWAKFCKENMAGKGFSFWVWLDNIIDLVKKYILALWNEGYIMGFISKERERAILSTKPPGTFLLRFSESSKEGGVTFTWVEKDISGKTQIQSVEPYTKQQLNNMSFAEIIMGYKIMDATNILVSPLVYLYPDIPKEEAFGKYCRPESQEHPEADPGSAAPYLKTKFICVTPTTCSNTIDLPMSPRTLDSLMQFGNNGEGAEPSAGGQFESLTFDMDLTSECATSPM
# Type: biochemical
# Test conditions: Stat3 DNA-binding activity in vitro; nuclear extracts pre-incubated with compound 30 min at room temperature, hSIE probe; read-out: EMSA IC50
pIC50: −log10 of the molar value.
Parameter: pIC50

smiles_record=O=C(O)c1ccc(N(Cc2ccc(C3CCOCC3)cc2)C(=O)[C@H]2CCCN2S(=O)(=O)c2c(F)c(F)c(F)c(F)c2F)cc1O test_result=5.27
smiles_record=O=C(O)c1ccc(N(Cc2ccc(C3CCCCC3)cc2)C(=O)[C@H]2CCCN2S(=O)(=O)c2c(F)c(F)c(F)c(F)c2F)c(F)c1 test_result=5.28
smiles_record=O=C(O)c1ccc(N(Cc2ccc(C3CCCCC3)cc2)C(=O)[C@@H]2CCCN2S(=O)(=O)c2c(F)c(F)c(F)c(F)c2F)cc1O test_result=5.14
smiles_record=CC(C)(C)c1ccc(CN(C(=O)[C@H]2CCN2S(=O)(=O)c2c(F)c(F)c(F)c(F)c2F)c2ccc(C(=O)O)cc2F)cc1 test_result=5.45
smiles_record=O=C(NO)c1ccc(N(Cc2ccc(C3CCOCC3)cc2)C(=O)[C@H]2CCN2S(=O)(=O)c2c(F)c(F)c(F)c(F)c2F)cc1 test_result=5.53

###

# Assay procedure: physchem
# Test conditions: simulated intestinal fluid (SIF), fassgf or other biorelevant
Parameter: solubility

smiles_record=O=C([O-])c1ccc(N(Cc2ccc(C3CCOCC3)cc2)C(=O)[C@H]2CCCN2S(=O)(=O)c2c(F)c(F)c(F)c(F)c2F)cc1O.[Na+] test_result="129 µg/mL"

###

Entries annotated with measured IC50
# Measured on: Stat3 (Mus musculus)
# Type: biochemical
# Test conditions: Stat3 DNA-binding activity in vitro; nuclear extracts pre-incubated with compound 30 min at room temperature, hSIE probe; read-out: EMSA IC50
Parameter: IC50 (µM)

smiles_record=O=C(NO)c1cc(F)c(N(Cc2ccc(C3CCOCC3)cc2)C(=O)[C@H]2CCN2S(=O)(=O)c2c(F)c(F)c(F)c(F)c2F)cc1O unit_of_measure=µM test_result=2.11
smiles_record=O=C(O)c1ccc(N(Cc2ccc(C3CCCCC3)cn2)C(=O)[C@H]2CCN2S(=O)(=O)c2c(F)c(F)c(F)c(F)c2F)cc1F unit_of_measure=µM test_result=0.856
smiles_record=O=C(O)c1ccc(N(Cc2ccc(C3CCCCC3)cc2)C(=O)[C@H]2CCCCN2S(=O)(=O)c2c(F)c(F)c(F)c(F)c2F)cc1O unit_of_measure=µM test_result=5.4

###

# Assay procedure: physchem
# Test conditions: PBS buffer, pH 7.4, aqueous buffer
Parameter: solubility (µg/mL)

smiles_record=O=C([O-])c1ccc(N(Cc2ccc(C3CCOCC3)cc2)C(=O)[C@H]2CCCN2S(=O)(=O)c2c(F)c(F)c(F)c(F)c2F)cc1O.[Na+] parameter=solubility test_result=132

###

Entries annotated with measured Papp
# Assay procedure: in vitro
# Test conditions: human, Caco-2
Parameter: Papp

compound=O=C([O-])c1ccc(N(Cc2ccc(C3CCOCC3)cc2)C(=O)[C@H]2CCCN2S(=O)(=O)c2c(F)c(F)c(F)c(F)c2F)cc1O.[Na+] test_result="1 nm/s"
compound="O=C(O)c1ccc(N(Cc2ccc(C3CCOCC3)cc2)C(=O)[C@H]2CCCN2S(=O)(=O)c2c(F)c(F)c(F)c(F)c2F)c(F)c1 [Example 60]" test_result="2 nm/s"
